B1: Caulobacter ParB omega fusion; a variant is named by its letters at X, in order, B8GW30 (parent)
chain: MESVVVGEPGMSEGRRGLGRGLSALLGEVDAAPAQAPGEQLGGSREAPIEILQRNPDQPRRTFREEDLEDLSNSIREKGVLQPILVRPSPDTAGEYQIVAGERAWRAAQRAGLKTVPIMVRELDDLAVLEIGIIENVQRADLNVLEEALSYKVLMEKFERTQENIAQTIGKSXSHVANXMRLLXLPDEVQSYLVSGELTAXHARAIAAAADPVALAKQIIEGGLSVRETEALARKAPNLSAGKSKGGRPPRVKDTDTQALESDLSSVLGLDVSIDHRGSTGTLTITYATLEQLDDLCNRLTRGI

# Variants of: B1
# assayComment: one-hybrid fitness for binding NBS DNA (the Noc-binding site; scaled: cognate 1, non-cognate 0); higher = stronger binding
# conditionSet: with NBS DNA site
In all, about 81,000 sequences were measured (“one-hybrid fitness for binding NBS DNA”: median about -0.1, highest 2% from about 0.36 on). This is one part of a sample in which the highest values are shown more often than they occur.
This listing pairs variants with measured one-hybrid fitness for binding NBS DNA.
recordedEndpoint: one-hybrid fitness for binding NBS DNA

1) QYST 0.413
2) PWIR ≤ 0.2
3) ECMG ≤ 0.2
4) QSMH ≤ 0.2
5) QYSS 0.357
6) EMMN ≤ 0.2
7) QSGD ≤ 0.2
8) AGWC ≤ 0.2
9) TGPI ≤ 0.2
10) WLPE ≤ 0.2
11) SMNL ≤ 0.2
12) QYYK ≤ 0.2
13) QLGH ≤ 0.2
14) QYHQ ≤ 0.2
15) QAMH 0.219
16) SESE ≤ 0.2
17) RSEM ≤ 0.2
18) QTGT 0.64
19) QYSH ≤ 0.2
20) KRCN ≤ 0.2
21) WHSS ≤ 0.2
22) QYKT 0.722
